EXPERIMENT_DESCRIPTION: logP(HCOOH) by HPLC
Format: physicochemical
RUN_CONDITIONS: HPLC on reversed phase columns, pH 2.7, 0.1% formic acid in water / acetonitrile, linear gradient 10% to 95% acetonitrile; EEC directive 79/831 Annex V.A8
MEASURED_PROPERTY: log p
Write no unit; give the number alone.

Field: example entries. Status: answers known.
CC(OC(=O)Nc1nc(CON=C(c2ccccc2)c2nnnn2C)cs1)C1CCCC1 (stereo not shown) | 4.25
Cn1nnnc1C(=NOCc1cccc(NC(=O)OCCCC2CC2)n1)c1ccccc1 | 4.15
Cc1nnnn1C(=NOCc1cccc(NC(=O)OCCCC2CCCC2)n1)c1ccccc1 | 5.25

Looking up CON=C(C(=O)Nc1nc(CON=C(c2ccccc2)n2nnnc2C)cs1)c1ccc(C)cc1 [compound 124] , I found its log p recorded as 4.13

====

EXPERIMENT_DESCRIPTION: logP(HCOOH) by HPLC
Format: physicochemical
RUN_CONDITIONS: HPLC on reversed phase columns, pH 2.7, 0.1% formic acid in water / acetonitrile, linear gradient 10% to 95% acetonitrile; EEC directive 79/831 Annex V.A8
Short version: log p at least 5 is rule met, less is rule not met.

Answered examples (5):
Cn1nnnc1/C(=N\OCc1cccc(NC(=O)OC2CC3CCC2(C)C3(C)C)n1)c1ccccc1 (centres unmarked) | rule met
C=CCCOC(C)C(=O)Nc1cccc(CO/N=C(/c2ccccc2)c2nnnn2C)n1 (centres unmarked) | rule not met
Cn1nnnc1C(=NOCc1cccc(NC(=O)COC2CCCCCC2)n1)c1ccccc1 | rule not met
CC(OC1CCC1)C(=O)Nc1cccc(CON=C(c2ccccc2)c2nnnn2C)n1 (centres unmarked) | rule not met
CON=C(C(=O)Nc1nc(CON=C(c2ccccc2)c2nnnn2C)cs1)c1ccc(Cl)cc1Cl | rule not met

Now for a further molecule.
Say whether Cc1nnnn1C(=NOCc1cccc(NC(=O)OC2CC3CCC2(C)C3(C)C)n1)c1ccccc1 (centres unmarked) shows log p of 5 or more. rule met

====

EXPERIMENT_DESCRIPTION: logP(HCOOH) by HPLC
Format: physicochemical
RUN_CONDITIONS: reversed phase HPLC columns, pH 2.7; HCOOH; read-out: logP(HCOOH)
MEASURED_PROPERTY: chromatographic logP

Looking up CC(CC1CC1)OC(=O)Nc1cccc(CO/N=C(/c2ccccc2)c2nnnn2C)n1 (stereo not shown) [Example 60] , I found its chromatographic logP recorded as 4.15

====

EXPERIMENT_DESCRIPTION: logP(HCOOH) by HPLC
Assay type: physicochemical
RUN_CONDITIONS: HPLC on reversed phase columns, pH 2.7, 0.1% formic acid in water / acetonitrile, linear gradient 10% to 95% acetonitrile; EEC directive 79/831 Annex V.A8
MEASURED_PROPERTY: log p
Write no unit; give the number alone.

Looking up CON=C(C(=O)Nc1cccc(CON=C(c2ccccc2)n2nnnc2C)n1)c1ccc(C)cc1 , I found its log p recorded as 4.44

Looking up CC1CCC(OC(C)C(=O)Nc2nc(CON=C(c3ccccc3)c3nnnn3C)cs2)CC1 (centres unmarked) , I found its log p recorded as 4.44

Looking up CC(C)=NOC(C)C(=O)Nc1nc(CO/N=C(/c2ccccc2)c2nnnn2C)cs1 (centres unmarked) , I found its log p recorded as 3.11

Looking up CCC(OC1CCCCC1)C(=O)Nc1cccc(CON=C(c2ccccc2)n2nnnc2C)n1 (centres unmarked) , I found its log p recorded as 4.91

Looking up C#CCOC(C)C(=O)Nc1nc(CO/N=C(/c2ccccc2)c2nnnn2C)cs1 (centres unmarked) , I found its log p recorded as 2.82

Looking up Cc1nnnn1C(=NOCc1cccc(NC(=O)OC(C)CC2CC2)n1)c1ccccc1 (centres unmarked) , I found its log p recorded as 4.24

Looking up Cc1nnnn1C(=NOCc1csc(NC(=O)OCC2CC2)n1)c1ccccc1 , I found its log p recorded as 3.27

Looking up CC(=NOCC(=O)Nc1cccc(CON=C(c2ccccc2)c2nnnn2C)n1)c1ccccc1 , I found its log p recorded as 3.92

Entry source: patent US20130012546A1
